melting point listing for selected compounds.
recorded_endpoint: melting point

compound	recorded_endpoint	result
Cc1cccc(OC2CCN(C3CCN(C(=O)c4cccc(S(C)(=O)=O)c4)CC3)CC2)n1.O=C(O)C(F)(F)F	melting point	94 to 95 °C
CC(=O)O.COc1cc(C(=O)N2CCC(N3CCC(Oc4ccc(Cl)c(Cl)c4)CC3)CC2)ccc1N	melting point	181 to 182 °C
CS(=O)(=O)c1ccc(C(=O)N2CCC(N3CCC(Oc4ccc(Cl)c(Cl)c4)CC3)CC2)s1	melting point	82 to 83 °C
COc1cc(C(=O)N2CCC(N3CCC(Oc4ccc(Cl)cc4C)CC3)CC2)ccc1N.O=C(O)C(F)(F)F.O=C(O)C(F)(F)F	melting point	110 to 111 °C
CS(=O)(=O)c1cccc(NC(=O)N2CCC(N3CCC(Oc4ccc(Cl)c(Cl)c4)CC3)CC2)c1	melting point	73 to 75 °C
O=C(C(CN1CCNCC1)c1ccccc1)N1CCC(N2CCC(Oc3ccc(Cl)c(Cl)c3)CC2)CC1 (stereo not shown)	melting point	76 to 77 °C
O=S(=O)(c1ccc(-c2ccccn2)s1)N1CCC(N2CCC(Oc3ccc(F)c(F)c3)CC2)CC1	melting point	126 to 127 °C
CS(=O)(=O)n1cc(C(=O)N2CCC(N3CCC(Oc4ccc(Cl)c(Cl)c4)CC3)CC2)c2ccccc21.Cl	melting point	104 to 105 °C
CS(=O)(=O)Nc1cccc(C(=O)N2CCC(N3CCC(Oc4ccc(Cl)c(Cl)c4)CC3)CC2)c1	melting point	150 to 152 °C
O=S(=O)(c1ccc(-c2ccccn2)s1)N1CCC(N2CCC(Oc3ccc(Cl)c(Cl)c3)CC2)CC1	melting point	149 to 150 °C

---

Listed here are compounds together with their documented melting point.

compound	melting point
CS(=O)(=O)c1ccccc1C(=O)N1CCC(N2CCC(Oc3ccc(Cl)c(Cl)c3)CC2)CC1 [Compound 293 of Table I]	78 to 80 °C
CS(=O)(=O)Nc1ccccc1C(=O)N1CCC(N2CCC(Oc3ccc(Cl)c(Cl)c3)CC2)CC1 [Compound 587 of Table I]	219 to 220 °C
CCn1cc(C(=O)N2CCC(N3CCC(Oc4ccc(Cl)c(Cl)c4)CC3)CC2)c(=O)c2ccc(C)nc21 [Compound 534 of Table I]	189 to 190 °C
O=C(Nc1ccccc1)N1CCC(N2CCC(Oc3ccc(Cl)c(Cl)c3)CC2)CC1 [Compound 309 of Table IV]	111 to 112 °C
Cc1cc(Cl)ccc1OC1CCN(C2CCN(C(=O)c3cccc(S(C)(=O)=O)c3)CC2)CC1 [Compound 1 of Table IV]	64 to 65 °C
CS(=O)(=O)c1cccc(C(=O)N2CCC(N3CCC(Oc4ccc(C(F)(F)F)cc4C#N)CC3)CC2)c1.O=C(O)C(F)(F)F	140 to 142 °C
CC(=O)O.CS(=O)(=O)c1cccc(C(=O)N2CCC(N3CCC(Oc4ccc(Cl)c(Cl)c4)CC3)CC2)c1	111 to 112 °C
